The measurements presented in this section are drawn from PubChem BioAssay (NCI).

The following compounds are listed with their measured TGI values.
System: SW-620 colon
Test: NCI tumour cell line growth inhibition, 48 h
Quick note: give the figure in µM, leave out the unit.

Completed entries (count: 3):
{"compound": "Clc1nc(Cl)c2ncn(-c3ccccc3)c2n1", "target_or_system": "SW-620 colon", "TGI / µM": 5.74}
{"compound": "COc1cccc2nc(Nc3cccc(NC(=O)c4ccc(N5CCN(C)CC5)c(C(F)(F)F)c4)c3)ccc12", "target_or_system": "SW-620 colon", "TGI / µM": 2.08}
{"compound": "c1cc[n+](Cc2c3ccccc3cc3c2ccc2ccccc23)cc1", "target_or_system": "SW-620 colon", "TGI / µM": 21.9}

Now for the compound whose TGI we want.
[Q] For the compound C=C(C(=O)c1ccccc1)C(NC(C)(C)C)c1ccccc1 (stereo not given) , what TGI is on record?
[A] 3.44
